The reported numbers originate from the DeepSol protein solubility set.

assay: soluble on expression in E. coli; label from the status in PepcDB or PDB records
Measurement Type: soluble on expression in E. coli

// below: answered sequences
MSLNRRELLERISEYQFACIELNLYLDNNPRDKKALDSYNRYCDKFTQAVCDYESKYGALTNFGYESSEYPWSWISEPWPWDKSFYK
soluble
MGSDKIHHHHHHMSKWLNVGKIVNTHGVRGEVRVLSTTDFEDDRFSSGKTLYVMRPNQNERVAVTVASHRKHKNFDLLCFEGYPSINDVEAFKGGRLQVPIEDRPELGEGEFFYHEIIGCSVVTIAGEELGKVKEILSPGANDVWVVQCRRGGKDLLIPYIEQVVKQVDLEKQQITIEPMEGLLE
not soluble
MQINGKAPRNKDLEPHSFELWLNAAKTNLDKYEMALIITATLGLRRGEVMGLRNESIKISHDQINDADVAQISIDMQRNTNELNGGPLKTKSSYRTIWAFGKTVDHLKYAMITADNLRQRNNIQAEKHWLWLNNDGNPLHPTHLNRLMRRVSNRSGVEVYPHLLRHYFATQAIAANKPQIDVMHYLGHKNLQMTADYTRSTKAASLNVFNSIDKFLLEHHHHHH
soluble
MLQISHLYADYGGKPALEDINLTLESGELLVVLGPSGCGKTTLLNLIAGFVPYQHGSIQLAGKRIEGPGAERGVVFQNEGLLPWRNVQDNVAFGLQLAGIEKMQRLEIAHQMLKKVGLEGAEKRYIWQLSGGQRQRVGIARALAANPQLLLLDEPFGALDAFTRDQMQTLLLKLWQETGKQVLLITHDIEEAVFMATELVLLSSGPGRVLERLPLNFARRFVAGESSRSIKSDPQFIAMREYVLSRVFEQREAFS
soluble
MGSDKIHHHHHHMSVETLPIILKELRLVSLLPHWQPLAEKAREQHWPVERYLAELCQLELSCREQKRLHRGLKEATLPIGKYLDTYDFSEVEGLSKKQVWHLADNAEWLKTGDNILLFGASGLGKTHIAAGLGYRLVEQGHRVKFMSASLLVQHLQKAKEELRLPEALVKLDRFAVLILDDLGYVQKSTEETSVLFELIAHRYERYSLIITSNQSFEDWDKLFSDTVMTVAAIDRLIHHAKILQCKGESYRRKEAQNKLN
not soluble

Would you kindly share the measured soluble on expression in E. coli for MAASPLVVQKTEEEWRAVLSPEQFRILRQKGTEKPGTGEYDKFFEEGIFDCVGCKTPLYKSTTKFDSGCGWPAFFEGLPGAINRTPDPDGRRTEITCAACDGHLGHVFKGEGYGNPTDERHCVNSVSISFNPAKSSSII ?
soluble

Further, for SIPALHRLVTVNMIPDASNDNIMVMRSYQIQATREILQRMKEMEASGLVQKEGGYIWHTTGSGKTVTSFKVAQLLASAPRIKNVLFIVDRIDLIDQTLENFKSFAYAHFKNRIKKVNGRELKRELKRKGSSQILLISVQGLTKAVKKGLENDDWNVIIMDEAHRSASGESVKLIKKALKKTTWFGFTGTPN ?
not soluble

And for MPAWAARLGASRDQQRALEEERSRTQAALQVMPHMLIELDADERLLRGHPGWLDRLPTLGPMAPGQGLQDFLPVDLATEVRRVLAEVETTGAPVSRDWQVRQAGARVWLAISAARLPPLA ?
not soluble

Lookup MRTMPDAPALHLTAIDSHAHVFSRGLNLASQRRYAPNYDAPLGDYLGQLRAHGFSHGVLVQPSFLGTDNRYLLSALQTVPGQLRGVVMLERDVEQATLAEMARLGVRGVRLNLMGQDMPDLTGAQWRPLLERIGEQGWHVELHRQVADIPVLVRALQPYGLDIVIDHFGRPDARRGLGQPGFAELLTLSGRGKVWVKVSGIYRLQGSPEENLAFARQALCALEAHYGAERLMWGSDWPHTQHESEVSFGSAVEQFEALGCSAQLRQALLLDTARALFGFELEHHHHHH
soluble

Repeat for the following sequence: MGSDKIHHHHHHVRACCGDQRAMSATDHGLPAIAELTDKELEVLRLLTAGHTIKSIAALLDRSEASINERLRDARRKTGVGSSRELARLVAGQENWPRKTDLSTPAVSGDADGQPALAARHWPKGTIAMFTLLPLAAGLMLVSAASQQADGPQSSHAAAAIASPLVGKWSLDTSRIPADERPRSVMIAFSVSPDQQWSTQVDIVAPDGSKMTATSTARADGVAVPISGNIPIFDTASLRQPAPNTLVMTLGKSGTPVATRVYTVARDGNSMTETIVWADKTMPKMETTYFNRVG
not soluble

// same read-out, input: SLNKKFSYPIPNFTDRRKSIIFWRYLRFQARKILYFPQVRLLEKTLNKEKNKHLKDFFSQRPYACYNATRRFCDKSFKANERVKTLIYDVDKGLACFKFLPEEQIIFSFDEDFELFLGYNYNVCEEGFWAFSLKFKKYTILQCNFCFTLENNLLLSCIQGHKYKDFNILEINKILTKKCHGLRPVALLIECSKMLCEILKLQTTLGVHEKNQIRSQKGKEKGYFVDYQKIWLENGGELIKINKHKYYKLHHSQKNLEEIPSQKRSMYKKRFAMLEEIKTNLDKTLSIQD
not soluble

Would you kindly repeat that for MAHHHHHHMVVSLIGPLDSPYVQRTLLVAAYAGIQLKLVPIQIGRENETEEYRLNCHPMQRVPVMKTDEGYLFESNAMIRYLARTEVMLVSVSAGIDSAGANNEKIPHPQYPIPYAMYGHSLLESTQVDSWLDFAITRIDFYTRQFFAYEHKTGPKPAADMKTLLCKSLDGLERRVAYLKEACRALVQQSGSLTSRSVMTDEELVWNEEDYMASRATRDSRLSSVYNVAGSIRQRHMEKERQEREKQLMLIKKTTDDALGKEEGADDPHHPSRRPSVSRDSMAISATPRASVLMSARSTMGSAAPGVQRHDLLFLVGGSLTAADLVMAMSLHGVLCCQELKPVLTSKYPNLFKYYKSVLMLPVAAEVRKAIRLSIIKE ?
soluble
